Measured values drawn from PubChem BioAssay (NCI) for this set.

# Tested on: MCF7 breast
# Test method notes: NCI-60 one-dose screen, 48 h (100 = growth as untreated, 0 = no growth, -100 = all killed)
# Condition summary: 10 µM unless noted
# Procedure: Growth inhibition of the MCF7 human tumor cell line is measured as a screen for anti-cancer activity. Cells are grown in 96 well plates and exposed to the test compound for 48 hours. Compounds are tested at a single concentration, which is 10^-5 M for most compounds. The reported endpoint is percent growth (GI% or GIPRCNT), where numbers from 0 - 100% represent growth inhibition, and numbers from -100% - 0 represent cell death. For example, a value of 40 represents 60% growth inhibition. […]
Compounds without any hit were thinned out: in the full panel of roughly 83,000, 20% have a hit. Active and inactive are the calls of the source. Rule for the calls: active = growth percent below 10; inactive = the rest.
The entries below are paired with their reported growth.
Measure: growth

INSERT INTO results (compound, assay_system, measure, result) VALUES
  ('COc1ccc(C2C(C#N)=C(N)Oc3c2sc2c(C)cccc32)cc1 (stereo unspecified)', 'MCF7 breast', 'growth', '10.8% (inactive)'),
  ('O=[N+]([O-])c1ccc(Cl)c(-c2cc(CCCCO)on2)c1', 'MCF7 breast', 'growth', '100% (inactive)'),
  ('[O-][n+]1c2ccccc2[n+]([O-])c2c3ccccc3[nH]c21', 'MCF7 breast', 'growth', '19.4% (inactive)'),
  ('CNCCCC12CCC(c3ccccc31)c1ccccc12', 'MCF7 breast', 'growth', '87.3% (inactive)'),
  ('CCCCCCCCCCCCCCCCCCOc1ccccc1CCCOP(=O)(O)OCC[N+](C)(C)C', 'MCF7 breast', 'growth', '60.5% (inactive)'),
  ('c1ccc(Cc2nn3cc(-c4ccccc4)nc3s2)cc1', 'MCF7 breast', 'growth', '87.2% (inactive)'),
  ('CCCCn1c(=O)c(-c2cc(-c3ccc(Cl)cc3)nc(-c3ccc(Cl)cc3)c2)cc2cc(C)ccc21', 'MCF7 breast', 'growth', '97.6% (inactive)'),
  ('Cc1onc2c(-c3ccccc3)n[nH]c(=O)c12', 'MCF7 breast', 'growth', '89.8% (inactive)'),
  ('c1ccc2c(c1)Nc1ccncc1S2', 'MCF7 breast', 'growth', '100% (inactive)'),
  ('O=S(=O)(Nc1ccc(-c2nc(-c3cccc(OCCN4CCOCC4)c3)c(-c3ccnc(Br)c3)[nH]2)cc1)c1ccccc1', 'MCF7 breast', 'growth', '9.52% (active)'),
  ('O=C1/C(=C/c2ccccc2[N+](=O)[O-])Oc2ccc(O)c(O)c21', 'MCF7 breast', 'growth', '21.2% (inactive)'),
  ('CCCCOc1nc2ccc(OC)cc2cc1-c1cc(-c2ccc(Cl)cc2)nc(-c2ccc(Cl)cc2)c1', 'MCF7 breast', 'growth', '97.5% (inactive)'),
  ('Fc1cc2c(cc1Cl)N(c1ncnc3ccc(-c4cnc5cnccn45)cc13)CC2', 'MCF7 breast', 'growth', '75.8% (inactive)'),
  ('CC(=O)c1ccc(Nc2nc(C(C)=O)c(C)s2)cc1', 'MCF7 breast', 'growth', '83.6% (inactive)'),
  ('O=S(=O)(NCCCNc1cc(-c2c(-c3cccc(O)c3)nc3sccn23)ccn1)c1cccc2ccccc12', 'MCF7 breast', 'growth', '35.4% (inactive)'),
  ('O=C(/C=C/c1sc(Cl)nc1Cl)c1ccc(F)cc1', 'MCF7 breast', 'growth', '14.4% (inactive)'),
  ('Cc1ccc2c(n1)C(=O)C(Cl)=C(Nc1ccccc1C(C)C)C2=O', 'MCF7 breast', 'growth', '21.1% (inactive)'),
  ('NCCCNc1nc2ccccc2c2c(=O)c3cccc(F)c3sc12', 'MCF7 breast', 'growth', '19.9% (inactive)'),
  ('N#Cc1c(-c2ccccc2)nc(SCC(=O)Nc2nc(-c3ccc(Cl)cc3)cs2)[nH]c1=O', 'MCF7 breast', 'growth', '91.7% (inactive)'),
  ('C#Cc1cccc(NC(=O)Nc2ccccc2NC(=O)CCl)c1', 'MCF7 breast', 'growth', '0.96% [8.25 µM] (active)'),
  ('NCCOc1ncccc1/C=C1\c2ccccc2-c2ccc(C(F)F)cc21', 'MCF7 breast', 'growth', '21.6% (inactive)');
